Data credit: paper PMC6095626

Tested on: G. lamblia trophozoites (luciferase expressing, WBC6)
Assay: microbe, parasite or virus in culture
Assay type: cell-based, Giardia lamblia
Conditions: initial Pathogen Box screen, single concentration 16 µM, inhibition compared to DMSO wells
Parameter threshold = 30%. Response is True when Giardia (16 uM) Mean % inhibition meets or exceeds it, else False.

compound	assigned.label
O=C(CCC1CCCCC1)Nc1cccc(-c2nnc(-c3ccco3)o2)c1	True

For this compound, is measured Giardia (16 uM) Mean % inhibition 30% or higher? NCC(=O)N1CCn2c(nc(-c3ccccc3)c2Nc2ccc3c(c2)OCO3)C1 False

Hi team, for O=C(Cn1ccnc1[N+](=O)[O-])NCc1ccccc1 , is the recorded Giardia (16 uM) Mean % inhibition at or above 30%? True

Does the reported Giardia (16 uM) Mean % inhibition for COc1ccc(N(CCc2cccc(C)n2)C(C)=O)cc1 fall at or above the 30% mark? False

Identify whether the reported Giardia (16 uM) Mean % inhibition of the following compound is 30% or greater: Cn1ccnc1CNCCS(=O)(=O)c1cccc(Nc2ccc(-c3cccc(F)c3)cn2)c1 False

Would you say O[C@@H](c1cc(C(F)(F)F)nc2c(C(F)(F)F)cccc12)[C@H]1CCCCN1 shows Giardia (16 uM) Mean % inhibition at minimum 30%? False

Does the compound COc1ccc2nccc(NC(=O)C3CCN(CCc4ccc(Cl)cc4)CC3)c2n1 have recorded Giardia (16 uM) Mean % inhibition that is 30% or more? True

// inclusive: Giardia (16 uM) Mean % inhibition at least 30%? input: O=C1O[C@@H](CO)CN1c1cc(F)c(C2=CCN(Cc3ccccc3)CC2)c(F)c1 False
